Cited source for all entries: PubChem BioAssay (NCI)

Tested on: BT-549 breast
protocol text: NCI tumour cell line growth inhibition, 48 h; in the data active means GI50 below about 0.43 µM; inactive means the rest
Labels: TRUE for active, FALSE for inactive

>  <compound>
Cc1[nH]c2ccccc2c1C1=CC(=O)C=CC1=O

>  <discrete label>
FALSE

$$$$
>  <compound>
COc1ccc2c(c1)c(-c1nc(-c3cn(C)c4ncccc34)cs1)cn2CCCCN1CCOCC1

>  <discrete label>
FALSE

$$$$
>  <compound>
COCO[C@@H]1CC2C=Nc3cc(OCc4ccccc4)c(OC)cc3C(=O)N2C1 (stereo partly specified)

>  <discrete label>
TRUE

$$$$
>  <compound>
CC(=O)OC1CC(C)c2c(Cl)ncnc21 (stereo unspecified)

>  <discrete label>
FALSE

$$$$
>  <compound>
O=C1C(Cl)=C(Nc2ccccn2)C(=O)c2ccccc21

>  <discrete label>
FALSE

$$$$
>  <compound>
Nc1ncnc2c1c(C(=O)NO)cn2C1OC(CO)C(O)C1O (stereo unspecified)

>  <discrete label>
TRUE

$$$$

---

Test system: MDA-MB-231 breast
protocol text: NCI tumour cell line growth inhibition, 48 h

>  <molecule>
CNC(=O)c1c(NC(=O)c2ccc(C(C)C)cc2)sc2c1CCC(=O)C2

>  <TGI>
1.71 µM

$$$$
>  <molecule>
Cc1cccc2c(N)c3cccc(C(=O)NCCN4CCOCC4)c3nc12

>  <TGI>
4.55 µM

$$$$
>  <molecule>
CC(C)NCCCCCNc1cc(O)cc2cccnc12

>  <TGI>
> 100 µM

$$$$
>  <molecule>
Cc1csc(-c2ccc3c(c2)COC3(CCCN(C)C)c2ccc(F)cc2)c1 (stereo not drawn)

>  <TGI>
3.34 µM

$$$$
>  <molecule>
Cc1ccc(C)c(N2C(=O)C(=O)c3c(C)ccc(C)c32)c1

>  <TGI>
49.8 µM

$$$$
>  <molecule>
O=c1[nH]cnc2c1ncn2C1SC(CO)C(O)C1O (stereo not drawn)

>  <TGI>
> 100 µM

$$$$
>  <molecule>
COc1ccc2[nH]cc(CN3CCC(CO)(c4ccccc4)CC3)c2c1

>  <TGI>
80.9 µM

$$$$
>  <molecule>
O=C(O)c1nc2cc(C(F)(F)F)ccc2[nH]c1=O

>  <TGI>
> 100 µM

$$$$
>  <molecule>
CCNC(=O)c1ccc2c(c1)nc(-c1ccc(Cl)cc1)n2-c1cc(C(C)(C)C)[nH]n1

>  <TGI>
28.5 µM

$$$$
>  <molecule>
O=C(O)C1CCCCC1C(=O)Nc1nc2ccccc2[nH]1 (stereo not drawn)

>  <TGI>
> 100 µM

$$$$
>  <molecule>
NS(=O)(=O)c1ccc(N=Nc2nc3[nH]cnc(=S)c3[nH]2)cc1

>  <TGI>
> 25.3 µM

$$$$
>  <molecule>
O=C(OC(CNc1c(C(=O)c2ccccc2)c(=O)n(Cc2ccccc2)c(=O)n1Cc1ccccc1)CN1CCCCC1)c1ccccc1 (stereo not drawn)

>  <TGI>
32.4 µM

$$$$
>  <molecule>
CCN(CC)c1nc(=O)c(C(=O)C(C)(C)C)c(C(C)(C)C)o1

>  <TGI>
> 100 µM

$$$$

---

System: DLD-1 colon
protocol text: NCI tumour cell line growth inhibition, 48 h

>  <compound>
CCCCCCCSCC1OC(n2cnc3c(N)ncnc32)C(O)C1O (stereo not drawn)

>  <study system>
DLD-1 colon

>  <TGI>
28.7 µM

$$$$
>  <compound>
CSC1CC2C(CC1(C)SC)C2(C)C (stereo not drawn)

>  <study system>
DLD-1 colon

>  <TGI>
> 100 µM

$$$$
>  <compound>
CCN1C(=O)C(N=[N+]=[N-])(c2ccccc2)C(=O)c2ccccc21 (stereo not drawn)

>  <study system>
DLD-1 colon

>  <TGI>
> 100 µM

$$$$
>  <compound>
NC(N)=NCCCC(NCc1c2ccccc2[n+]([O-])c2ccccc12)C(=O)O (stereo not drawn)

>  <study system>
DLD-1 colon

>  <TGI>
> 100 µM

$$$$
>  <compound>
Nc1ccn(CC(CO)CC(c2ccccc2)P(=O)(O)O)c(=O)n1 (stereo not drawn)

>  <study system>
DLD-1 colon

>  <TGI>
> 100 µM

$$$$
>  <compound>
O=C(CC(=O)c1cccc([N+](=O)[O-])c1)C(=O)Nc1nc([N+](=O)[O-])cs1

>  <study system>
DLD-1 colon

>  <TGI>
> 100 µM

$$$$
>  <compound>
COc1cc2c3c(c1OCc1ccccc1)NCCC3NCC2 (stereo not drawn)

>  <study system>
DLD-1 colon

>  <TGI>
> 100 µM

$$$$
>  <compound>
CC(C)N(C(=O)C12C3C4C5C3C1(C#N)C5C42)C(C)C (stereo not drawn)

>  <study system>
DLD-1 colon

>  <TGI>
> 100 µM

$$$$
>  <compound>
Cc1ccc(C(O)/C(=N/N)c2nc3ccc([N+](=O)[O-])cc3[nH]c2=O)cc1 (stereo not drawn)

>  <study system>
DLD-1 colon

>  <TGI>
> 100 µM

$$$$
>  <compound>
O=c1nc(-c2ccccc2)scc1-c1ccccc1

>  <study system>
DLD-1 colon

>  <TGI>
> 100 µM

$$$$
>  <compound>
CCCCCCCCCCNC(=S)OCCCC

>  <study system>
DLD-1 colon

>  <TGI>
85.4 µM

$$$$
>  <compound>
COc1cc(O)c2c(c1O)C(=O)c1cc(C)ncc1C2=O

>  <study system>
DLD-1 colon

>  <TGI>
> 50 µM

$$$$
>  <compound>
COC(=O)C1CCC[C@H]2C(CO)=C(C)C(=O)[C@@H]12 (stereo partly drawn)

>  <study system>
DLD-1 colon

>  <TGI>
> 100 µM

$$$$
>  <compound>
CC1OC(n2cc(I)c(=O)[nH]c2=O)C=CC1=O (stereo not drawn)

>  <study system>
DLD-1 colon

>  <TGI>
26 µM

$$$$
>  <compound>
C=CCCCCn1c2ccccc2c2c(C)c3c[n+](C)ccc3c(C)c21

>  <study system>
DLD-1 colon

>  <TGI>
2.52 µM

$$$$
>  <compound>
CCOc1ccc(N=Nc2c(-c3ccccc3)nn(C(=O)CC(=O)Nc3cccc(C)c3)c2-c2ccccc2)cc1

>  <study system>
DLD-1 colon

>  <TGI>
> 100 µM

$$$$
>  <compound>
N#Cc1nc(Nc2ccc(Cl)cc2)sc1N

>  <study system>
DLD-1 colon

>  <TGI>
> 100 µM

$$$$
>  <compound>
CCOC(=O)NN(C(=O)OCC)C(C(=O)c1ccc(Cl)cc1)=C1NCCN1

>  <study system>
DLD-1 colon

>  <TGI>
> 100 µM

$$$$

---

System: MDA-N
protocol text: NCI tumour cell line growth inhibition, 48 h
Reported TGI values follow for various molecules

>  <molecule>
Cc1ccc2nc(CC(=O)c3ccc4ccccc4c3)c(=O)[nH]c2c1

>  <study system>
MDA-N

>  <TGI>
> 100 µM

$$$$
>  <molecule>
O=C(/C=C/c1cccs1)c1ccc(Cl)s1

>  <study system>
MDA-N

>  <TGI>
> 10 µM

$$$$
>  <molecule>
O=C(O)c1nc2cc(C(F)(F)F)ccc2[nH]c1=O

>  <study system>
MDA-N

>  <TGI>
> 100 µM

$$$$
>  <molecule>
CCN(CC)CCOCC1CCCN2CCCCC12 (stereo unspecified)

>  <study system>
MDA-N

>  <TGI>
> 100 µM

$$$$
>  <molecule>
COc1cc2c(cc1OC)CN1CCc3ccccc3CC1C2 (stereo unspecified)

>  <study system>
MDA-N

>  <TGI>
> 100 µM

$$$$
>  <molecule>
CCCC(=O)Nc1ncnc2c1ncn2C1OC2COP(=O)(O)OC2C1OC(=O)CCC (stereo unspecified)

>  <study system>
MDA-N

>  <TGI>
> 1000 µM

$$$$
>  <molecule>
COc1ccc2[nH]cc(CN3CCC(CO)(c4ccccc4)CC3)c2c1

>  <study system>
MDA-N

>  <TGI>
38.3 µM

$$$$
>  <molecule>
CCOC(=O)c1nc2cc(C(F)(F)F)ccc2nc1Oc1ccc(C(=O)OC)cc1

>  <study system>
MDA-N

>  <TGI>
> 100 µM

$$$$
>  <molecule>
COc1cc(S(=O)(=O)Nc2ccc(-c3csc(/N=C\C=C\c4ccccc4)n3)cc2)ccc1Cl

>  <study system>
MDA-N

>  <TGI>
> 100 µM

$$$$
>  <molecule>
COC(=O)c1cn(CCCCO)nn1

>  <study system>
MDA-N

>  <TGI>
> 100 µM

$$$$
>  <molecule>
C=CCN(c1cc(OCc2ccccc2)c2c(c1)c(C)cn2S(=O)(=O)c1ccccc1)S(C)(=O)=O

>  <study system>
MDA-N

>  <TGI>
> 100 µM

$$$$

---

Tested on: KM12 colon
protocol text: NCI tumour cell line growth inhibition, 48 h

>  <compound>
CCCCC/C=C\C/C=C/CCCCCCCCNC(=O)Nc1ccc([N+](=O)[O-])cc1

>  <study system>
KM12 colon

>  <TGI>
> 100 µM

$$$$
>  <compound>
Cc1nc2sc(C(=O)Nc3cccc(Cl)c3C)c(N)c2cc1C(=O)c1ccccc1

>  <study system>
KM12 colon

>  <TGI>
> 50 µM

$$$$
>  <compound>
COc1cccc(N2C(=O)[C@H]3[C@H]4CC(C(C)(C)C)CC[C@H]4c4c([nH]c5ccccc45)[C@H]3C2=O)c1 (stereo not given in full)

>  <study system>
KM12 colon

>  <TGI>
> 100 µM

$$$$
>  <compound>
C[CH2][Sn]([Cl])([CH2]C)[CH2]C

>  <study system>
KM12 colon

>  <TGI>
12.8 µM

$$$$
>  <compound>
Cc1ccc(C(CC(=O)c2ccccc2)C(C(=O)c2ccccc2)C(c2ccc(C)cc2)C2C(=O)NC(=S)NC2=O)cc1 (stereo not given)

>  <study system>
KM12 colon

>  <TGI>
> 50 µM

$$$$
